Data provenance: patent US6583150B1

assay: Determination of the maximum tolerated dose (MTD); format: in vivo; conditions: mouse, in vivo, ip; single intraperitoneal administration, survival over 14 days, B6D2F1/Jico mice
Listed below: MTD at 14 days values for each entry.

compound | MTD at 14 days
O=C(O)C(F)(F)F.O=C1c2nccc([N+](=O)[O-])c2-c2nc3ccccc3c3ccnc1c23 [CRL 8258] | 40 mg/kg
CC(=O)Nc1ccnc2c1C(=O)c1c(-c3ccccc3NC(=O)C(F)(F)F)ccnc1C2=O [CRL 8428] | > 160 mg/kg
O=C1c2nccc([N+](=O)[O-])c2-c2nc3ccccc3c3ccnc1c23 [CRL 8273] | > 80 mg/kg
O=C(O)C(F)(F)F.O=C1c2nccc(Br)c2-c2nc3ccccc3c3ccnc1c23 [CRL 8259] | 40 mg/kg
COc1ccnc2c1C(=O)c1c(-c3ccccc3[N+](=O)[O-])ccnc1C2=O [CRL 8243] | > 160 mg/kg
O=C1c2ncccc2C(=O)c2c(-c3ccccc3NC(=O)C(F)(F)F)ccnc21 [CRL 8277] | > 40 mg/kg
O=C1c2nccc(-c3ccccc3NC(=O)C(F)(F)F)c2C(=O)c2c([N+](=O)[O-])ccnc21 [CRL 8267] | 20 mg/kg
O=C1c2nccc(O)c2-c2nc3ccccc3c3ccnc1c23 [CRL 8348, meridine, reference compound] | > 160 mg/kg
